measurement-protocol: S. cerevisiae RM11-1a growth modifiers, primary screen, strain RM11-1a, OD600, basal, 24 h (AID 1177);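 also: cultures grown under basal conditions with no added stressor; test concentration not given here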
cond: OD600, 24 h, higher = more signal, called active from +8 up or from −8 down
outcome-measure: z-score
# answer = number (no unit)

molecule	result
CCOc1cc(C(O)C2C=CC3C(=O)N(c4ccccc4)C(=O)C3N2Nc2ccc([N+](=O)[O-])cc2)ccc1O (centres undefined)	-0.864

Quick one: z-score for CCOC(=O)C[C@H]1[C@H](OC(=O)c2ccc(-c3ccccc3)cc2)[C@@H](NC(=O)c2ccc3ccccc3c2)c2cc(OCCCO)ccc2N1C(=O)Cc1ccc(OC)cc1 ?
-0.169

Need z-score, item O=C1N(CCS(=O)(=O)c2ccccc2)Cc2ccccc2[C@H]2OC(c3ccc(OCCCO)cc3)=N[C@@]12CCS(=O)(=O)c1ccccc1
3.07

Look at this molecule and give its reported z-score. C=CC(=C)C1=CCO[C@@H]1[C@H]1CCCN1S(=O)(=O)c1ccccc1[N+](=O)[O-]
0.223

====

measurement-protocol: binders of probe aFGF10 on microarray, primary screen, stem cell growth factor project, biochemical, small-molecule microarray, fluorescence 635/667 (AID 1071);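 also: score merges 667 nm spot intensity and signal to noise from triplicate slides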
cond: higher = more signal
outcome-measure: composite z-score
Write no unit; give the number alone.

The examples below pair each entry with its known result.
molecule	result
O=C(CCN1CCOCC1)c1cccc(O)c1	0.628
O=C/C=C/c1ccc(Cl)cc1	0.439
NCCCCCNC(=O)[C@H]1C[C@H]2C(=O)NCC(=O)N2[C@H]1c1cccc(OCCO)c1	-0.0838
COCCOC(=O)N1C(=O)[C@@]2(c3cc(C#CCNC(N)=O)ccc31)[C@H](C(=O)N1CCN(c3ncccn3)CC1)[C@H]1C(=O)O[C@H](c3ccccc3)[C@H](c3ccccc3)N1[C@@H]2c1ccccc1OCCO	0.947
CC(C)(C)OC(=O)CC[C@@]1(C(=O)O)N=C(c2ccc(OCCCO)cc2)O[C@@H]1c1ccccc1N=[N+]=[N-]	1.11

We now examine a further molecule.
For the molecule shown here, CC(C)N1CC=CC23O[C@@H]4C=CCOC(=O)[C@@H]4[C@H]2C(=O)N(CCO)[C@@H]3C1=O (some centres undefined) , give the reported composite z-score.
-0.484

====

measurement-target: Pro-neuregulin-1, membrane-bound isoform (Homo sapiens)
measurement-protocol: NRG1 binders on small-molecule microarrays, primary screen, psychiatric disease protein project, biochemical, small-molecule microarray, fluorescence 635/667 (AID 1075);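 also: score combines 667 nm spot fluorescence with signal to noise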
cond: NRG1 binding, 635 nm fluorescence, higher = more signal
Short version: composite z-score at least 1 is fulfilled, less is not fulfilled.

compound	group-label
O=C1OCC=C[C@H]2OC34C=CCN(c5ccc6ccccc6c5)C(=O)[C@H]3N(CCCO)C(=O)[C@@H]4[C@@H]12 (some centres undefined)	not fulfilled
N#Cc1ccc(NN2C(C(O)c3cccs3)C=CC3C(=O)N(c4ccccc4)C(=O)C32)cc1 (centres undefined)	fulfilled
CCOC(=O)C1=CCC(c2ccc(C#N)cc2)N(S(=O)(=O)c2ccc(C)cc2)C1 (centres undefined)	fulfilled

Say whether COc1cc2c(cc1O)C(C)N(Cc1cccc(OC(F)(F)F)c1)CC2 (centres undefined) shows composite z-score of 1 or more.
fulfilled

Dear colleague, could you confirm whether C=CCC(OC(C)=O)[C@@H]1[C@@H](N(Cc2ccc(-c3ccccc3)cc2)C(=O)Cc2ccc(F)cc2)c2cc(OCCCO)ccc2N1C(=O)c1ccc2ccccc2n1 (some centres undefined) has composite z-score at or above 1?
not fulfilled

Does the compound C=CC[C@@]1(C(=O)O)N=C(c2ccc(OCCCO)cc2)O[C@@H]1c1ccccc1N=[N+]=[N-] have recorded composite z-score that is 1 or more?
not fulfilled

Exam item: decide whether the reported composite z-score for CN1C=C(C(=O)OCCS(C)(=O)=O)C(C(=O)OCCS(C)(=O)=O)=CC(CCCO)=CC1C1CC1 (centres undefined) is at least 1.
fulfilled

Is the recorded value of composite z-score equal to or greater than 1 for this compound? C=C(C(=O)CC[C@H](OC(C)=O)c1ccc(OCCO)cc1)C(C)C
not fulfilled

Tell me whether composite z-score is at least 1 here: O=C(CS)NCCCCCCNC(=O)[C@H]1C[C@H]2C(=O)N3CCC[C@H]3C(=O)N2[C@H]1c1cccc(OCCO)c1
fulfilled

====

measurement-protocol: small-molecule microarray binders of probe aDKK1, primary screen, biochemical, biotinylated probe, 635/667 nm fluorescence (AID 1099);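 also: score merges 667nm spot fluorescence with signal to noise across triplicate slides; reference of the scale not given here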
cond: higher = more signal
outcome-measure: composite z-score
Please give the numeric answer without any surrounding text.

compound	result
COc1cc(CO)ccc1OC(C)=O	-0.082

Consider the additional compound presented here.
So what's the measured composite z-score for this one? C=C[C@@H](COC(C)=O)N(Cc1ccc([N+](=O)[O-])cc1)S(=O)(=O)c1ccc(Br)cc1
0.965

====

Tested on: Sonic hedgehog protein (Shh)
measurement-protocol: small-molecule binders of Shh protein, primary screen, biochemical, small-molecule microarray, 635/667 nm fluorescence (AID 1151);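 also: Shh protein binding to compounds spotted on small-molecule microarray slides; score combines spot fluorescence intensity with signal-to-noise across triplicate slides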
cond: small-molecule microarray binding, 635 nm fluorescence; higher = more signal
outcome-measure: composite z-score
Respond with the number and no other words.

Worked examples, 6 compounds total:
compound	result
COc1ccc([Si](C)(C)[C@H]2[C@H](CCn3cc([C@H](O)c4ccccc4)nn3)O[C@@]3(C(=O)N(Cc4cccc(N5CCC5=O)c4)c4ccccc43)[C@@H]2C)cc1	1.9
O=C1OCC=C[C@H]2OC34C=CCN(c5ccc6ccccc6c5)C(=O)[C@H]3N(CCCO)C(=O)[C@@H]4[C@@H]12 (some centres not stated)	-0.372
COC(=O)C(CC#Cc1ccc2c(c1)[C@]1(C(=O)N2)[C@H](C(=O)NC[C@H](O)c2ccccc2)[C@H]2C(=O)O[C@H](c3ccccc3)[C@H](c3ccccc3)N2[C@@H]1c1ccc(OCCO)cc1)C(=O)OC	1.6
COCC(=C=CC[C@@H](O)c1ccc(CO)o1)CCO	2.2
CC1CC/C=C\[C@H]2OC34C=CCN(Cc5ccccc5)C(=O)[C@H]3N(CCCCCO)C(=O)[C@@H]4C2C(=O)O1 (some centres not stated)	-0.829
CCOC(=O)C[C@H]1[C@H](OC(=O)c2ccccc2-c2ccccc2)[C@@H](NC(=O)c2ccc3ccccc3c2)c2cc(OCCCO)ccc2N1C(=O)c1ccc2ccccc2n1	0.575

Now take the following compound into account.
Request the reported composite z-score associated with CC(=CC1CCCCC1)[C@@H](NC(=O)c1ccc(C(F)(F)F)cc1)c1ccc(-c2ccccc2)cc1
-0.129

====

measurement-protocol: adipocyte viability effects, profiling panel, cell-based, 3T3-L1 adipocytes, calcein-AM fluorescence, 48 h, basal (AID 1163); also: test concentration not given here
cond: 3T3-L1 adipocytes viability, higher = more signal
The label rule met is reserved for z-score strictly under 0.3; rule not met covers values equal to or above it.

Recorded results for 3 molecules are shown here.
molecule	group-label
CN(C)C(=O)[C@]1(CCC(=O)OC(C)(C)C)N=C(c2ccc(OCCCO)cc2)O[C@@H]1c1ccccc1N=[N+]=[N-]	rule not met
C[C@]1(C(=O)NCc2ccccc2)c2ccccc2C(=O)N(Cc2cc(F)cc(C(F)(F)F)c2)[C@H]1c1ccc(CO)cc1	rule met
CCN(CC)c1ccc(N2CC=CC34O[C@@H]5/C=C\CCCOC(=O)C5[C@H]3C(=O)N(C(CO)C(C)C)[C@@H]4C2=O)cc1 (stereo not given in full)	rule met

Dear colleague, could you confirm whether z-score of COC(=O)[C@]1(Cc2ccccc2N=[N+]=[N-])N=C(c2ccc(OCCCO)cc2)O[C@@H]1c1ccccc1N=[N+]=[N-] falls below 0.3? Thanks.
rule met

Lab log: compare recorded z-score with 0.3; is it strictly lower for O=C(OCCF)C1=CCC(c2cccc(Cl)c2)O1 (stereo not given) ?
rule met

Strictly below 0.3: is that where z-score of C=C[C@@H](COC(C)=O)N(Cc1ccccc1[N+](=O)[O-])S(=O)(=O)c1ccc(Br)cc1 sits?
rule not met

Would you kindly verify if z-score of O=C1C2C=CC(C(O)c3ccc(F)cc3)N(Nc3ccccc3)C2C(=O)N1c1ccccc1 (stereo not given) is strictly less than 0.3?
rule met

Is z-score of CN1C(=O)C2C=CC(C(O)c3ccccn3)N(Nc3ccccc3)C2C1=O (stereo not given) strictly below 0.3?
rule met

# TODO verify z-score < 0.3 strictly for this molecule: O=C1O[C@@H](c2ccccc2)[C@@H](c2ccccc2)N2[C@@H](c3ccccc3OCCO)[C@]3(C(=O)Nc4ccc(C#CC5(O)CCCCCC5)cc43)[C@@H](C(=O)Nc3nc4ccccc4s3)[C@H]12
rule not met

Strictly below 0.3: is that where z-score of O=C1C2C=CC(C(O)c3cccs3)N(Nc3ccccc3F)C2C(=O)N1c1ccccc1 (stereo not given) sits?
rule met

====

measurement-protocol: inhibitors of hydroxyurea-induced Chk1 phosphorylation, primary screen, imaging, HeLa, phospho-Chk1 antibody, percent positive cells (AID 1186)
cond: hydroxyurea-induced phospho-Chk1 immunofluorescence imaging, higher = more signal
Heads up, the class ranges for z-score are class 0: < -0.4; class 1: ≥ -0.4 and < 0.1; class 2: ≥ 0.1

Reference set, count: 2
compound	group-label
COc1ccc([Si](C)(C)[C@@H]2[C@@H](CC(=O)N(CCO)Cc3ccccc3)O[C@]3(C(=O)N(C)c4ccccc43)[C@H]2C)cc1	class 1
COc1ccc(C#Cc2ccc3c(c2)[C@]2(C(=O)N3)[C@H](c3ccc(O)cc3)N3[C@H](c4ccccc4)[C@H](c4ccccc4)OC(=O)[C@H]3[C@@H]2C(=O)NC[C@H](O)c2ccccc2)cc1	class 1

Hello team, could you let me know which band the following compound falls into: CCOC(=O)C[C@H]1[C@H](OC(=O)c2ccc(-c3ccccc3)cc2)[C@@H](NC(=O)c2ccc(-c3ccccc3)cc2)c2cc(OCCCO)ccc2N1C(=O)Cc1ccc(OC)cc1
class 1

Lab log: O=C1OCCC=C[C@H]2OC34C=CCN(Cc5ccccc5)C(=O)[C@H]3N(CCCCCCO)C(=O)[C@@H]4C12 (stereo partly specified) — assign z-score category
class 2

Would you mind sorting CN1CCC(CCCO)=CC1c1ccc(CN2CCCC2)cc1 (stereo unspecified) into the appropriate category?
class 2
